test system: LLC-MK2 cells; details: rhesus monkey
Give measured CC50 for each item. Keep answers brief.

[Q] GET /values?readout=CC50&item= COc1c(C)c2c(c(O)c1C/C=C(\C)CCC(=O)OCCN1CCOCC1)C(=O)OC2 [Mycophenolate mofetil]
[A] 3.01 µM

[Q] GET /values?readout=CC50&item= "CC[C@H]1CN2CCc3cc(OC)c(OC)cc3[C@@H]2C[C@@H]1C[C@H]1NCCc2cc(OC)c(OC)cc21"
[A] 3.63 µM

[Q] GET /values?readout=CC50&item= "O[C@H]1[C@H]2c3cc4c(cc3CN3CCC(=C[C@@H]1O)[C@H]23)OCO4"
[A] 3.81 µM

[Q] GET /values?readout=CC50&item= "Nc1ccc(/N=N/c2ccccc2)c(N)n1"
[A] > 20 µM

[Q] GET /values?readout=CC50&item= "COc1c(C)c2c(c(O)c1C/C=C(\C)CCC(=O)O)C(=O)OC2"
[A] 3.44 µM

This collection of values is drawn from paper PMC6613765.
